Kindly state inhibition at 10 µM for each of the entries shown.
# Assayed Target: human B1R receptor (hB1R) (Homo sapiens, UniProt P46663)
# Construct: host or cells: CHO K1 cells
# Sequence (P46663 1-353): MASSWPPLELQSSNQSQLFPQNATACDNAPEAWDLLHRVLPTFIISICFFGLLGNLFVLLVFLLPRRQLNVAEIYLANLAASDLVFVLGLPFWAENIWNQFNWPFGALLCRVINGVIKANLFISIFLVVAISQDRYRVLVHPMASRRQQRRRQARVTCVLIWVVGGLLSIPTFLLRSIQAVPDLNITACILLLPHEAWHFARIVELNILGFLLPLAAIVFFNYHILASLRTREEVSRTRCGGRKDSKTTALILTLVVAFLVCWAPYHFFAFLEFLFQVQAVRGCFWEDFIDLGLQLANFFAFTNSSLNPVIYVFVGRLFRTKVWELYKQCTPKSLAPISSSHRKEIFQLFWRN
# Protocol Notes: FLIPR Ca2+ assay on hB1R-transfected CHO K1 cells, antagonistic action
# Assay type: cell-based
# Details: CHO-K1, read-out: hB1R [10 μM] % inhibition
Numbers only, in %.

Answered examples (3):
CN1CCN(C2(c3cccc(F)c3)CCN(C(=O)COCC3CCCCN3S(=O)(=O)c3ccccc3C(F)(F)F)CC2)CC1 (stereo not shown) [Compound 225] has a reported inhibition at 10 µM of 100

CN1CCN(C2(c3cccc(F)c3)CCN(C(=O)CCCC3CCCCN3S(=O)(=O)c3cccc4ccccc34)CC2)CC1 (stereo not shown) [Compound 215] has a reported inhibition at 10 µM of 100

CNC1(c2ccncc2)CCN(C(=O)COCCN(C)S(=O)(=O)c2c(C)cc(OC)cc2C)CC1 [Compound 209] has a reported inhibition at 10 µM of 100

Consider now this further compound.
CN1CCN(C2(c3cccc(F)c3)CCN(C(=O)CCCC3CCCCN3S(=O)(=O)c3ccccc3C(F)(F)F)CC2)CC1 (stereo not shown) [Compound 213] has a reported inhibition at 10 µM of 100
